study target: T1, CoV-NL63 Spike ectodomain (NL63-CoV, UniProt Q6Q1S2 19-1291)
T1 sequence: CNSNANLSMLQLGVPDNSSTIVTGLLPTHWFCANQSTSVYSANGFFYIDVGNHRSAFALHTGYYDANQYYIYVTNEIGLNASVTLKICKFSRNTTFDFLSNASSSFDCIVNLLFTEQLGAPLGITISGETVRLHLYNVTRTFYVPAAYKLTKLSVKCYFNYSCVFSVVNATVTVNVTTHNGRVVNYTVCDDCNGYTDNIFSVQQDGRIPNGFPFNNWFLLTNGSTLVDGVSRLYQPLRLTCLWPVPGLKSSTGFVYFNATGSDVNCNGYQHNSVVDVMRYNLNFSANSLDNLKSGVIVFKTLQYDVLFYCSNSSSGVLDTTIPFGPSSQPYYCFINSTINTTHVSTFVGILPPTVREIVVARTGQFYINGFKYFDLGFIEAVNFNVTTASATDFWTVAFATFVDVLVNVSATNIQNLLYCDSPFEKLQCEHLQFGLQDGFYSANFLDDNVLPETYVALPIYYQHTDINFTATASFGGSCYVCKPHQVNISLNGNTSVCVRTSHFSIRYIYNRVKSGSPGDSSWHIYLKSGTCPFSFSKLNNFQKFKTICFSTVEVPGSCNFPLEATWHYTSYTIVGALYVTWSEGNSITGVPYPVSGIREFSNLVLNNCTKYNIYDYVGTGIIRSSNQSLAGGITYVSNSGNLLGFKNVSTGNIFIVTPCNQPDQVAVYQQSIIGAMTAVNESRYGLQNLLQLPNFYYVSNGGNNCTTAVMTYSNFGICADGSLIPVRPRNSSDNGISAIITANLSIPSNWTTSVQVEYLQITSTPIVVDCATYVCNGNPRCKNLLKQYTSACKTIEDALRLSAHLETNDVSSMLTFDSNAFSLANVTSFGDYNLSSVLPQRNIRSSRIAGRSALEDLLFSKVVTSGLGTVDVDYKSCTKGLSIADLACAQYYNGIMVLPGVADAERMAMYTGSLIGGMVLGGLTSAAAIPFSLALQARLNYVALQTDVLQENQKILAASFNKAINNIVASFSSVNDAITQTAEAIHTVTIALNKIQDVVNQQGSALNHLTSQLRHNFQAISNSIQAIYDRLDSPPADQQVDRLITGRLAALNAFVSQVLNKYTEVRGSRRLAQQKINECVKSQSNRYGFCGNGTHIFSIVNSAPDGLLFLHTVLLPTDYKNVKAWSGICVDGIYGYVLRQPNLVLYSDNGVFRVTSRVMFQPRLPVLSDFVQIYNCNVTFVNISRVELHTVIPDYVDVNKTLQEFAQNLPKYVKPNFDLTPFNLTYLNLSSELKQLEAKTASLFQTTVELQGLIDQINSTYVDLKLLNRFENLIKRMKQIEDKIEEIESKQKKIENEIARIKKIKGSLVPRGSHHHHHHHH
test: ELISA, coated antigen; also: test concentration or dose not given here
property: ELISA OD (OD)
# output: bare number, implied unit OD

Cv2.3235 (recombinant human IgG1) (antibody, V domains shown) VH: EVQLVESGGGLIQPGGSLRLSCAASGFTVSRNYMSWVRQAPGKGLEWVSVIYSGGSTFYADSVKGRFTISRDNSKNTLYLQMNSLRAEDTAVYYCARDGDYYGMDVWGQGTTVTVSS VL: DIQMTQSPSFLSASVGDRVTITCRASQGISSFLAWYQQKPGKAPKLLIYGASTLQSGVTSRFSGSGSGTEFTLTISSLQPEDFATYYCQRLDSYPPITFGQGTRLEIKR	0.2

Looking up Cv2.1353 (recombinant human IgG1) (antibody, V domains shown) VH: EVQLVESGGGLVQPGGSLRLSCAASGVTVSSNYMNWVRQAPGKGLEWVSVIYSGGSTFYADSVKGRFIISRDNSKNTLYLQMNSLKTEDTAVYYCARDLGPMGFDIWGQGTMVTVSS VL: DIQMTQSPSFLSASVGDRVTITCRASQGISSYLAWYQQKPGKAPKLLIYAASTLQSGVPSRFSGSGSGTEFTLTISSLQPEDFATYYCQQLNSDPPVTFGPGTKVDIKR , I found its ELISA OD recorded as 0.1

Looking up Cv2.5213 (recombinant human IgG1) (antibody, V domains shown) VH: EVQLVESGGGLIQPGGSLRLSCAASGFTVSSNYMSWVRQAPGKGLEWVSLIYSGGSTYYADSVKGRFTISRDNSKNTLYLQMNSLRAEDTAVYYCARDLNYYGMDVWGQGATVTVSS VL: DIQMTQSPSSLSASVGDRVTITCRASQGISSYLAWYQQKPGKAPKLLIYAASTLQSGVPSRFSGSGSGTDFTLTISSLQPEDFATYYCQQLDSYSPFTFGPGTKVDIKR , I found its ELISA OD recorded as 0.1

Looking up Cv2.3194 (recombinant human IgG1) (antibody, V domains shown) VH: EVQLVESGGGLIQPGGSLRLSCAASGITVTSNYMSWVRQAPGKGLEWVSVIYPGGSTFYADSVKGRFTISRDNSKNTLYLQMNSLRAEDTAVYYCARDLVVYGMDVWGQGTTVTVSS VL: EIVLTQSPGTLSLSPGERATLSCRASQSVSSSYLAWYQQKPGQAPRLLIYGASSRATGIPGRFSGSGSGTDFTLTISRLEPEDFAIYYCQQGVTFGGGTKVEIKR , I found its ELISA OD recorded as 0.1
